target: Adrenergic receptor alpha-1 (Rattus norvegicus, UniProt P15823+P23944+P43140); experiment: Binding affinity to alpha-1 adrenergic receptor determined by measurement of [3H]prazosin displacement from rat cortical membrane
measuredAttribute: Log Ki

{"structureSmiles": "COc1ccc2c(c1)CCN1C[C@H]3CCCN(S(=O)(=O)CCl)[C@@H]3C[C@@H]21", "studyTarget": "Adrenergic receptor alpha-1 (Rattus norvegicus, UniProt P15823+P23944+P43140)", "observedMeasurement": -5.13}
{"structureSmiles": "COc1ccc2c(c1)CCN1C[C@@H]3CCCN(S(C)(=O)=O)[C@H]3C[C@@H]21", "studyTarget": "Adrenergic receptor alpha-1 (Rattus norvegicus, UniProt P15823+P23944+P43140)", "observedMeasurement": -5.2}
{"structureSmiles": "CC(C)CS(=O)(=O)N1CCC[C@@H]2CN3CCc4ccccc4[C@@H]3C[C@@H]21", "studyTarget": "Adrenergic receptor alpha-1 (Rattus norvegicus, UniProt P15823+P23944+P43140)", "observedMeasurement": -5.37}
{"structureSmiles": "CS(=O)(=O)N1CCC[C@H]2CN3CCc4ccccc4[C@@H]3C[C@@H]21", "studyTarget": "Adrenergic receptor alpha-1 (Rattus norvegicus, UniProt P15823+P23944+P43140)", "observedMeasurement": -5.65}
{"structureSmiles": "CS(=O)(=O)N1CCC[C@@H]2CN3CCc4c([nH]c5ccccc45)[C@@H]3C[C@@H]21", "studyTarget": "Adrenergic receptor alpha-1 (Rattus norvegicus, UniProt P15823+P23944+P43140)", "observedMeasurement": -4.8}
{"structureSmiles": "COc1ccc2c(c1)CCN1C[C@H]3CCCN(S(=O)(=O)N(C)C)[C@H]3C[C@@H]21", "studyTarget": "Adrenergic receptor alpha-1 (Rattus norvegicus, UniProt P15823+P23944+P43140)", "observedMeasurement": -5.25}
{"structureSmiles": "COc1cc2c(cc1Br)[C@@H]1C[C@@H]3[C@H](CCCN3S(C)(=O)=O)CN1CC2", "studyTarget": "Adrenergic receptor alpha-1 (Rattus norvegicus, UniProt P15823+P23944+P43140)", "observedMeasurement": -5.25}
{"structureSmiles": "CS(=O)(=O)N1CC[C@H]2C[C@H]3c4ccccc4CCN3C[C@H]2C1", "studyTarget": "Adrenergic receptor alpha-1 (Rattus norvegicus, UniProt P15823+P23944+P43140)", "observedMeasurement": -5.2}
